Source listed as paper PMC9092470.

System tested: HIF-1α786-826/p300 complex (Homo sapiens, UniProt Q09472)
Construct: GST (N, cleaved yes); made in house; host or cells: p300: E. coli BL21 pLysS (pGEX-4T1-p300); HIF-1α peptide: chemical synthesis
Sequence (Q09472 330-420, one chain of several): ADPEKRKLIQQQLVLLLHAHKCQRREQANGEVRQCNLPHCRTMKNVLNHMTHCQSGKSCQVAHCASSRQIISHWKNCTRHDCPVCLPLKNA
Assay overview: Competition ITC: CITED2 peptide titrated to preformed p300/HIF-1α786–826 complex
Assay type: binding
Condition context: titrated to HIF-1α786-826/p300 complex, fitted with fixed KD = 42.9 nM and ΔH = -25.8 kcal/mol for HIF-1α786-826, read-out: KD,app CITED2
Result type: Kd

Req: Can you share its Kd? I mean this substance: Ac-DEEVLMSLVIEMGLDRIKELPELWLGQNEFDFMTDF-NH2 [CITED2_224–259]
Resp: 8.4 nM
